# System: HIV-1 NL4-3
# METHOD_DESCRIPTION: HIV-1 infectivity in TZM-b1 reporter cells (luciferase)
# Type: cell-based
# ASSAY_CONDITIONS: 3 μM, TZM-b1 reporter cells
// values below are reported INFECTIVITY @ 3 μM % Inhibition vs. DMSO control
ENDPOINT_NAME: INFECTIVITY @ 3 μM % Inhibition vs. DMSO control (%)

>>> print(df.to_string())
                                   compound  target_system  unit_of_measurement  recorded_result
0  Cc1nn(C(=N)N)c(O)c1CCc1ccc(F)cc1 [JV-1-87]    HIV-1 NL4-3                    %              0.0
1  COc1ccc(-c2nn(C(N)=S)c(O)c2CCc2ccc(F)cc2)cc1 [JV-1-94]    HIV-1 NL4-3                    %              0.0
2  N=C(N)n1nc(-c2ccoc2)c(CCc2ccc(F)cc2)c1O [JV-1-96]    HIV-1 NL4-3                    %             11.0
3  N=C(N)n1nc(C2CC2)c(CCc2ccc(F)cc2)c1O [JV-1-89]    HIV-1 NL4-3                    %             28.0
